// provenance: patent US20230391741A1

- assay-comment: Plasma pharmacokinetics after intraperitoneal injection in mouse (UPLC-MS/MS)
- Type: in vivo
- settings: male, ICR, mouse, plasma, ip, 10 mg/kg, IP 10 mg/kg, 5 min; read-out: Plasma concentration, individual mice 1-3
readout-label: concentration at 5 min (ng/mL)

# compound-string, experimental-result
rows = [
    ("CC1(C)O[C@]23C[C@H]1CC[C@]2(C)CCC=C3CCCC(F)(F)F", 359),
]

----------
- assay-comment: Plasma pharmacokinetics after intraperitoneal injection in mouse (UPLC-MS/MS)
- Assay type: in vivo
- settings: male, ICR, mouse, plasma, ip, 10 mg/kg, IP 10 mg/kg, 0.25 h; read-out: Plasma concentration, individual mice 1-3
readout-label: concentration at 0.25 h (ng/mL)

# compound-string, experimental-result
rows = [
    ("CC1(C)O[C@]23C[C@H]1CC[C@]2(C)CCC=C3CCCC(F)(F)F", 188),
]
